For each of the compounds below, state its Bliss excess.
system: LB771-HNC (Head and Neck Carcinoma); assay: Bliss excess, mean over the matrix (fraction); higher = more synergy
Answers are plain numbers.

Compound	Bliss excess
C[C@@H](c1ccc2nccn2c1)n1nnc2ncc(-c3cnn(C)c3)nc21 [Savolitinib] + CC1(C)CCC(CN2CCN(c3ccc(C(=O)NS(=O)(=O)c4ccc(NCC5CCOCC5)c([N+](=O)[O-])c4)c(Oc4cnc5[nH]ccc5c4)c3)CC2)=C(c2ccc(Cl)cc2)C1 [Venetoclax] (first compound max 1 µM, 7x7, partner max 1 µM)	-0.0912

Next compound, please.
Exercise: Quick check: Bliss excess of Cc1c2c(nn1C)CSCc1cc(n(C)n1)CSc1cc(c3ccccc3c1)OCCCc1c(C(=O)O)n(C)c3c-2c(Cl)ccc13 [AZD5991] + CC1(C)CCC(CN2CCN(c3ccc(C(=O)NS(=O)(=O)c4ccc(NCC5CCOCC5)c([N+](=O)[O-])c4)c(Oc4cnc5[nH]ccc5c4)c3)CC2)=C(c2ccc(Cl)cc2)C1 [Venetoclax] (first compound max 1 µM, 7x7, partner max 1 µM) ?
Solution: 0.0035

---

system: NCI-H69 (Small Cell Lung Carcinoma); assay: combination Emax (second highest fraction inhibited in the dose matrix, 72 h); higher = more inhibition; extreme values may be limits of the assay
For each of the compounds below, state its combination Emax.

Some entries whose results are on file:
Compound	combination Emax
NC1(C(=O)N[C@@H](CCO)c2ccc(Cl)cc2)CCN(c2ncnc3[nH]ccc23)CC1 [Capivasertib] + Cn1cnc2c(F)c(Nc3ccc(Br)cc3Cl)c(C(=O)NOCCO)cc21 [Selumetinib] (first compound max 10 µM, 7x7, partner max 10 µM)	0.466
COc1cc2c(cc1OCCCCCOc1cc3c(cc1OC)C(=O)N1C=C(C)C[C@H]1C=N3)N=C[C@@H]1CC(C)=CN1C2=O [SG3199] + O=C(c1cc(Cc2n[nH]c(=O)c3ccccc23)ccc1F)N1CCN(C(=O)C2CC2)CC1 [Olaparib] (first compound max 0.001 µM, 7x7, partner max 10 µM)	0.242
CN(CCO)CC[C@H](CSc1ccccc1)Nc1ccc(S(=O)(=O)NC(=O)c2ccc(N3CCC([C@@H](O)c4ccccc4-c4ccc(Cl)cc4)CC3)cc2)cc1S(=O)(=O)C(F)(F)F [AZD4320] + CC(=O)O[C@H]1C(=O)[C@@]2(C)[C@H]([C@H](OC(=O)c3ccccc3)[C@]3(O)C[C@H](OC(=O)[C@H](O)[C@@H](NC(=O)c4ccccc4)c4ccccc4)C(C)=C1C3(C)C)[C@]1(OC(C)=O)CO[C@@H]1C[C@@H]2O [Paclitaxel] (first compound max 1 µM, 7x7, partner max 3 µM)	0.991
CCN(CCO)CCCOc1ccc2c(Nc3cc(CC(=O)Nc4cccc(F)c4)[nH]n3)ncnc2c1 [AZD2811] + C[C@@H]1COCCN1C2=NC(=NC(=C2)C3(CC3)[S@](=N)(=O)C)C4=C5C=CNC5=NC=C4 [AZD6738] (first compound max 1 µM, 7x7, partner max 10 µM)	0.726
COc1nnc2ccc(N3CCC(c4ccc(OCCN5CCN(C)C(=O)[C@H]5C)cc4)CC3)nn12 [AZD5153] + CC1(C)CCC(CN2CCN(c3ccc(C(=O)NS(=O)(=O)c4ccc(NCC5CCOCC5)c([N+](=O)[O-])c4)c(Oc4cnc5[nH]ccc5c4)c3)CC2)=C(c2ccc(Cl)cc2)C1 [Venetoclax] (first compound max 1 µM, 7x7, partner max 1 µM)	0.636
O=C(c1cc(Cc2n[nH]c(=O)c3ccccc23)ccc1F)N1CCN(C(=O)C2CC2)CC1 [Olaparib] + COc1nnc2ccc(N3CCC(c4ccc(OCCN5CCN(C)C(=O)[C@H]5C)cc4)CC3)nn12 [AZD5153] (first compound max 10 µM, 7x7, partner max 1 µM)	0.488

Exercise: Quick check: combination Emax of Cc1cc2ncnn2cc1Nc1ncc2c(n1)n(C1CCOCC1)c(=O)n2C [AZD7648] + C=CCn1c(=O)c2cnc(Nc3ccc(N4CCN(C)CC4)cc3)nc2n1-c1cccc(C(C)(C)O)n1 [AZD1775] (first compound max 10 µM, partner max 1 µM) ?
Solution: 0.389

---

tested on: NCI-H2461 (Mesothelioma); experiment: combination Emax (second highest fraction inhibited in the dose matrix, 72 h); higher = more inhibition; extreme values may be limits of the assay
Measured Parameter: combination Emax
Numbers only.

Some entries whose results are on file:
Compound	Reported Result
COc1cc2c(cc1OCCCCCOc1cc3c(cc1OC)C(=O)N1C=C(C)C[C@H]1C=N3)N=C[C@@H]1CC(C)=CN1C2=O [SG3199] + O=C(c1cc(Cc2n[nH]c(=O)c3ccccc23)ccc1F)N1CCN(C(=O)C2CC2)CC1 [Olaparib] (first compound max 0.001 µM, 7x7, partner max 10 µM)	0.11
C[C@@H]1COCCN1c1cc(C2([S@](C)(=N)=O)CC2)nc(-c2ccnc3[nH]ccc23)n1 [AZD6738] + C1CC(C1)(C(=O)[O-])C(=O)[O-].N.N.[Pt+2] [Carboplatin] (first compound max 10 µM, 7x7, partner max 10 µM)	0.646
CC1(C)CCC(CN2CCN(c3ccc(C(=O)NS(=O)(=O)c4ccc(NCC5CCOCC5)c([N+](=O)[O-])c4)c(Oc4cnc5[nH]ccc5c4)c3)CC2)=C(c2ccc(Cl)cc2)C1 [Venetoclax] + C=CCn1c(=O)c2cnc(Nc3ccc(N4CCN(C)CC4)cc3)nc2n1-c1cccc(C(C)(C)O)n1 [AZD1775] (first compound max 1 µM, partner max 1 µM)	0.731
Cc1c2c(nn1C)CSCc1cc(n(C)n1)CSc1cc(c3ccccc3c1)OCCCc1c(C(=O)O)n(C)c3c-2c(Cl)ccc13 [AZD5991] + Cc1cc2ncnn2cc1Nc1ncc2c(n1)n(C1CCOCC1)c(=O)n2C [AZD7648] (first compound max 1 µM, 7x7, partner max 10 µM)	0.422
CS(=O)(=O)CCNCc1ccc(-c2ccc3ncnc(Nc4ccc(OCc5cccc(F)c5)c(Cl)c4)c3c2)o1 [Lapatinib] + Cn1cnc2c(F)c(Nc3ccc(Br)cc3Cl)c(C(=O)NOCCO)cc21 [Selumetinib] (first compound max 10 µM, 7x7, partner max 10 µM)	0.488

Go through the items and report each one's combination Emax.
1. Cc1c2c(nn1C)CSCc1cc(n(C)n1)CSc1cc(c3ccccc3c1)OCCCc1c(C(=O)O)n(C)c3c-2c(Cl)ccc13 [AZD5991] + CC1(C)CCC(CN2CCN(c3ccc(C(=O)NS(=O)(=O)c4ccc(NCC5CCOCC5)c([N+](=O)[O-])c4)c(Oc4cnc5[nH]ccc5c4)c3)CC2)=C(c2ccc(Cl)cc2)C1 [Venetoclax] (first compound max 1 µM, 7x7, partner max 1 µM)
2. Cn1cnc2c(F)c(Nc3ccc(Br)cc3Cl)c(C(=O)NOCCO)cc21 [Selumetinib] + C=CCn1c(=O)c2cnc(Nc3ccc(N4CCN(C)CC4)cc3)nc2n1-c1cccc(C(C)(C)O)n1 [AZD1775] (first compound max 10 µM, partner max 1 µM)
3. COc1nnc2ccc(N3CCC(c4ccc(OCCN5CCN(C)C(=O)[C@H]5C)cc4)CC3)nn12 [AZD5153] + CCN(CCO)CCCOc1ccc2c(Nc3cc(CC(=O)Nc4cccc(F)c4)[nH]n3)ncnc2c1 [AZD2811] (first compound max 1 µM, 7x7, partner max 1 µM)
4. COc1cccc(OCCCN)c1-c1cc(Nc2cnc(C#N)cn2)n[nH]1 [Prexasertib] + CCc1c2c(nc3ccc(O)cc13)-c1cc3c(c(=O)n1C2)COC(=O)[C@]3(O)CC [SN-38] (first compound max 1 µM, 7x7, partner max 0.3 µM)
5. COc1nnc2ccc(N3CCC(c4ccc(OCCN5CCN(C)C(=O)[C@H]5C)cc4)CC3)nn12 [AZD5153] + Cc1c2c(nn1C)CSCc1cc(n(C)n1)CSc1cc(c3ccccc3c1)OCCCc1c(C(=O)O)n(C)c3c-2c(Cl)ccc13 [AZD5991] (first compound max 1 µM, 7x7, partner max 1 µM)

Solution:
1. 0.181
2. 0.569
3. 0.592
4. 0.705
5. 0.498

---

tested on: LoVo (Colorectal Carcinoma); experiment: Bliss excess, mean over the matrix (fraction); higher = more synergy
For each of the compounds below, state its Bliss excess.
Give bare numbers.

Some entries whose results are on file:
Compound	Bliss excess
CC(=O)c1c(C)c2cnc(Nc3ccc(N4CCNCC4)cn3)nc2n(C2CCCC2)c1=O [Palbociclib] + Cc1c2c(nn1C)CSCc1cc(n(C)n1)CSc1cc(c3ccccc3c1)OCCCc1c(C(=O)O)n(C)c3c-2c(Cl)ccc13 [AZD5991] (first compound max 10 µM, 7x7, partner max 1 µM)	-0.0584
COc1nnc2ccc(N3CCC(c4ccc(OCCN5CCN(C)C(=O)[C@H]5C)cc4)CC3)nn12 [AZD5153] + Cc1c2c(nn1C)CSCc1cc(n(C)n1)CSc1cc(c3ccccc3c1)OCCCc1c(C(=O)O)n(C)c3c-2c(Cl)ccc13 [AZD5991] (first compound max 1 µM, 7x7, partner max 1 µM)	-0.0383

Go through the items and report each one's Bliss excess.
1. CN(CCO)CC[C@H](CSc1ccccc1)Nc1ccc(S(=O)(=O)NC(=O)c2ccc(N3CCC([C@@H](O)c4ccccc4-c4ccc(Cl)cc4)CC3)cc2)cc1S(=O)(=O)C(F)(F)F [AZD4320] + C[C@@H](Nc1cc(F)cc(F)c1)c1cc(C(=O)N(C)C)cc2c(=O)cc(N3CCOCC3)oc12 [AZD8186] (first compound max 1 µM, 7x7, partner max 3 µM)
2. C[C@@H](c1ccc2nccn2c1)n1nnc2ncc(-c3cnn(C)c3)nc21 [Savolitinib] + Cc1c2c(nn1C)CSCc1cc(n(C)n1)CSc1cc(c3ccccc3c1)OCCCc1c(C(=O)O)n(C)c3c-2c(Cl)ccc13 [AZD5991] (first compound max 1 µM, 7x7, partner max 1 µM)
3. CN(CCO)CC[C@H](CSc1ccccc1)Nc1ccc(S(=O)(=O)NC(=O)c2ccc(N3CCC([C@@H](O)c4ccccc4-c4ccc(Cl)cc4)CC3)cc2)cc1S(=O)(=O)C(F)(F)F [AZD4320] + Cn1cnc2c(F)c(Nc3ccc(Br)cc3Cl)c(C(=O)NOCCO)cc21 [Selumetinib] (first compound max 1 µM, 7x7, partner max 3 µM)
4. CC1(C)CCC(CN2CCN(c3ccc(C(=O)NS(=O)(=O)c4ccc(NCC5CCOCC5)c([N+](=O)[O-])c4)c(Oc4cnc5[nH]ccc5c4)c3)CC2)=C(c2ccc(Cl)cc2)C1 [Venetoclax] + C1CN(CCC1(C(=O)N[C@@H](CCO)C2=CC=C(C=C2)Cl)N)C3=NC=NC4=C3C=CN4 [Capivasertib] (first compound max 1 µM, 7x7, partner max 3 µM)

Solution:
0.0355
-0.0331
0.0195
-0.0419
